Target: Stromelysin-1 (Homo sapiens, UniProt P08254)
Sequence (P08254 whole entry): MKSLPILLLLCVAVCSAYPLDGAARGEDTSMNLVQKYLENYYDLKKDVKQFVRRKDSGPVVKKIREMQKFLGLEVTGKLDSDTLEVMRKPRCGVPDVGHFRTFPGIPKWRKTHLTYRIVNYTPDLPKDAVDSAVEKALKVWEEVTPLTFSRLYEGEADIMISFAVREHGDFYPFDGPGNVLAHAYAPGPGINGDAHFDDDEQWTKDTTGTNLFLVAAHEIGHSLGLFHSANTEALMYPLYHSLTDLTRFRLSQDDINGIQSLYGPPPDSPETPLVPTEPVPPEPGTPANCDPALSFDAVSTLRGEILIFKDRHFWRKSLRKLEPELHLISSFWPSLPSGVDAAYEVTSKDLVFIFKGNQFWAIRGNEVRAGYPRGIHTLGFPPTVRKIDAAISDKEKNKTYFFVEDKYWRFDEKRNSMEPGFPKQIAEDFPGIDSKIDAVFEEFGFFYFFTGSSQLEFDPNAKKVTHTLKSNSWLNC
Assay: In vitro inhibition activity of human recombinant stromelysin (Matrix metalloprotease-3)
pIC50: −log10 of the molar value.
value type: pIC50

Example results:
compound: COCCOc1ccc(S(=O)(=O)N2C/C(=N\OC)C[C@@H]2C(=O)NO)cc1
system tested: Stromelysin-1 (Homo sapiens, UniProt P08254)
pIC50: 7.82

compound: COCCOc1ccc(S(=O)(=O)N2CC(NOC)C[C@@H]2C(=O)NO)cc1 (some centres not stated)
system tested: Stromelysin-1 (Homo sapiens, UniProt P08254)
pIC50: 6.65

compound: CCCCOc1ccc(S(=O)(=O)N2C/C(=N\OCC)C[C@@H]2C(=O)NO)cc1
system tested: Stromelysin-1 (Homo sapiens, UniProt P08254)
pIC50: 8.70

compound: C=C1C[C@H](C(=O)NO)N(S(=O)(=O)c2ccc(OCCOC)cc2)C1
system tested: Stromelysin-1 (Homo sapiens, UniProt P08254)
pIC50: 7.16

compound: CO/N=C1/C[C@H](C(=O)NO)N(S(=O)(=O)c2ccc(Oc3ccccc3)cc2)C1
system tested: Stromelysin-1 (Homo sapiens, UniProt P08254)
pIC50: 8.70

I: CONC1C[C@H](C(=O)NO)N(S(=O)(=O)c2ccc(OC)cc2)C1 (some centres not stated)
II: COc1ccc(S(=O)(=O)N2C/C(=N\OC(C)(C)C)C[C@@H]2C(=O)NO)cc1
[in] // which entry has the larger pIC50 value, I or II ? Your choice should be expressed through its label.
[out] II

* * *

Biological target: Interstitial collagenase (Homo sapiens, UniProt P03956)
Sequence (P03956 whole entry): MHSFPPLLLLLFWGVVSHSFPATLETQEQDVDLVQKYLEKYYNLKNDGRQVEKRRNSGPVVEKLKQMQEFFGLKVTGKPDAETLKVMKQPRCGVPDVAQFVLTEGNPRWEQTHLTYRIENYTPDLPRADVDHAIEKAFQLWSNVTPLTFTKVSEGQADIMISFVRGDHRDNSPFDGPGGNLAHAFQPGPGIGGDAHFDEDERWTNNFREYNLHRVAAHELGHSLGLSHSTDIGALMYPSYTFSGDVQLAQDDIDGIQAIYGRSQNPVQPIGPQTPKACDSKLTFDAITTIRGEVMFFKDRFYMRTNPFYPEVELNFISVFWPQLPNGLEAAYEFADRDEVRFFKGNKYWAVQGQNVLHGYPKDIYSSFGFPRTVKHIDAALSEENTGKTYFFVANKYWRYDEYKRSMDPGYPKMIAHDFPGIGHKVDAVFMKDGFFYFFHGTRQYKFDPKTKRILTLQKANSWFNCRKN
Experiment: In vitro inhibition of human recombinant collagenase-1 (Matrix metalloprotease-1, MMP-1)
value type: IC50 (nM)

compound: CCCCOc1ccc(S(=O)(=O)N2C/C(=N\N3CCOCC3)C[C@@H]2C(=O)NO)cc1
system tested: Interstitial collagenase (Homo sapiens, UniProt P03956)
IC50 (nM): 293
--
compound: CC(C)(C)O/N=C1/C[C@H](C(=O)NO)N(S(=O)(=O)c2ccc(Oc3ccncc3)cc2)C1
system tested: Interstitial collagenase (Homo sapiens, UniProt P03956)
IC50 (nM): 26
--
compound: COc1ccc(S(=O)(=O)N2C/C(=N\OC(C)(C)C)C[C@@H]2C(=O)NO)cc1
system tested: Interstitial collagenase (Homo sapiens, UniProt P03956)
IC50 (nM): 20
--
compound: CCCCOc1ccc(S(=O)(=O)N2C/C(=N\OCC(C)C)C[C@@H]2C(=O)NO)cc1
system tested: Interstitial collagenase (Homo sapiens, UniProt P03956)
IC50 (nM): 75

a: CO/N=C1/C[C@H](C(=O)NO)N(S(=O)(=O)c2ccc(Oc3ccccc3)cc2)C1
b: COCCOc1ccc(S(=O)(=O)N2C/C(=N\OC)C[C@@H]2C(=O)NO)cc1
c: CCOc1ccc(S(=O)(=O)N2C/C(=N\OC)C[C@@H]2C(=O)NO)cc1
d: COc1ccc(S(=O)(=O)N2CC(NOC(C)(C)C)C[C@@H]2C(=O)NO)cc1 (some centres undefined)
e: CCCCOc1ccc(S(=O)(=O)N2CC(NOC)C[C@@H]2C(=O)NO)cc1 (some centres undefined)
[in] Could you please sort these 5 entries by IC50 from high to low? Form entry: ranked labels (order as requested).
[out] e, d, b, c, a
(e: 790 nM, d: 255 nM, b: 109 nM, c: 22 nM, a: 3 nM)
